test: NCI Yeast Anticancer Drug Screen. Data for the rad18 strain (AID 177); settings: S. cerevisiae rad18 mutant growth inhibition; at 33.0 µM; active compounds read high
This is part of a sample that, as a whole, favours compounds with a hit. Of some 79,000 tested, about 15% had one in any assay. Activity calls are given as the source filed them. Rule as the data show it: active = growth inhibition above about 70%; inactive = the rest.

# Compound, growth inhibition
records = [
    ("CCOP(=O)(OCC)C(Cc1ccccc1)N=C(c1ccccc1)c1ccccc1 (stereo not drawn)", "87% (active)"),
    ("CCCS(=O)(=O)Nc1ccc(Nc2c3ccccc3nc3ccccc23)c(OC)c1", "-10% (inactive)"),
    ("Cc1nc(-[n+]2nc(-c3ccncc3)nn2-c2ccccc2)sc1C", "46% (inactive)"),
    ("OC(c1ccc(F)cc1)(c1ccc(F)cc1)C1CC1", "46% (inactive)"),
    ("C=CCC1=C(C)C(OC(=O)/C=C/c2ccccc2)CC1=O (stereo not drawn)", "5% (inactive)"),
    ("Cn1c2ccccc2c(=O)c2cc(NC(=O)CCCCC(=O)Nc3ccc4c(c3)c(=O)c3ccccc3n4C)ccc21", "49% (inactive)"),
    ("CCCc1cc(C(=O)OCC)cc(CCC)c1O", "-1% (inactive)"),
    ("CCOC(=O)C1=C(C(=O)c2ccccc2)C(c2ccccc2[N+](=O)[O-])C(C(=O)c2ccccc2)=C(C(=O)OCC)N1", "7% (inactive)"),
    ("O=c1c2ccccc2ncn1COCc1ccccc1", "9% (inactive)"),
    ("Cn1ccnc1Oc1ccc(Cl)cc1", "55% (inactive)"),
    ("O=Nc1cccnc1N=O", "98% (active)"),
    ("O=C(NCCCCNCCCNC(=O)c1cc(-c2ccccc2)nc2ccccc12)c1cc(-c2ccccc2)nc2ccccc12", "89% (active)"),
    ("O=C1CSC(/C=C/c2ccccc2)N1c1ccc(-c2ccc(-n3c(-c4ccccc4)nc4ccccc4c3=O)cc2)cc1 (stereo not drawn)", "13% (inactive)"),
    ("N#CN1C2CCC1CC(=O)C2", "-21% (inactive)"),
    ("C=C1CC(Cn2cc(Br)c(=O)[nH]c2=O)(c2ccc(-c3ccccc3)cc2)OC1=O (stereo not drawn)", "43% (inactive)"),
    ("c1ccc(-c2ccnc3c2ccc2c(-c4ccccc4)ccnc23)cc1", "98% (active)"),
    ("O=C(OCC=C1CCCC1)c1cc([N+](=O)[O-])cc([N+](=O)[O-])c1", "95% (active)"),
    ("CC(C)/C(Cl)=N\\OC(=O)Nc1ccccc1F", "43% (inactive)"),
    ("CSC(=S)Nc1cccc(C)n1", "9% (inactive)"),
    ("COc1ccc(/C(C)=N/OC(=O)c2c(-c3ccccc3Cl)noc2C)cc1CN1CCOCC1", "21% (inactive)"),
    ("NC(=NCc1ccccc1)N/N=C\\c1ccnc2ccccc12", "5% (inactive)"),
    ("O=C(c1cc(Br)ccc1O)c1cc(Br)ccc1O", "99% (active)"),
    ("CC1C(NNc2ccccc2)Oc2cc3c(cc2C1c1ccccc1O)OCO3 (stereo not drawn)", "91% (active)"),
]

---

test: NCI Yeast Anticancer Drug Screen. Data for the rad50EPP+ strain (AID 151);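 also: 0% = growth of vehicle-treated control cultures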; conditions: S. cerevisiae rad50 mutant strain, at 33.0 µM, active compounds read high
This is part of a sample that, as a whole, favours compounds with a hit. Of some 79,000 tested, about 15% had one in any assay.
Reported property: growth inhibition (%)

# Molecule, Numeric value
rows = [
    ("COc1cc(C2C3=C(COC3=O)Oc3cc4c(cc32)OCO4)ccc1O (centres undefined)", 4),
    ("CC(=O)OCc1ccc(O)c(C=O)c1", 14),
    ("C/C(=N/NC(=S)N1CCCCCC1)c1cccc(/C(C)=N\\NC(=S)N2CCCCCC2)n1", -48),
    ("O=S(=O)(CCCl)c1ccccc1Cl", 79),
    ("CCc1ncnc2cc(OCC3CO3)c(OC)cc12 (centres undefined)", 47),
    ("Fc1ccc(NC(=S)SCc2ccc(Cl)c(Cl)c2)cc1F", 98),
    ("Cc1cc(S(=O)(=O)/N=C(/NN)NNc2cccc(C(F)(F)F)n2)c(S)cc1Cl", -52),
    ("Cc1ccc(-n2cc(-c3ccc(Cl)cc3)c(C#N)c2N)cc1", 56),
    ("CC(/C=C/c1ccc(Cl)cc1)=N\\NC(=S)NCC(C)C", 12),
    ("CC(C)/C(Cl)=N\\OC(=O)Nc1cccc(Cl)c1", 2),
    ("O=C(Nc1ccc(Cl)cc1)OCC#CCCl", 98),
    ("O=C(Nc1ccccc1)C(=O)C(C(=O)c1ccccc1)C(c1ccccc1)c1ccccc1 (centres undefined)", 2),
    ("Cc1nc(-[n+]2nc(-c3ccncc3)nn2-c2ccccc2)sc1C", 44),
    ("O=[N+]([O-])c1ccc2nc3ccccc3cc2c1", 90),
    ("Nc1nc(Cl)c(Cl)c(Cl)n1", 93),
    ("OCC(Cn1cncn1)(c1ccc(F)cc1F)n1cncn1 (centres undefined)", 92),
    ("CC(CC(C)(C)[N+](C)(C)C)[N+](C)(C)C (centres undefined)", 4),
    ("O=C1c2ccccc2C(=O)c2c(NC3CCCCC3)ccc(Nc3ccc(S(=O)(=O)O)cc3)c21", 80),
    ("Cc1ccc(CSC(N)=Nc2ccccc2)cc1C", 4),
    ("O=[N+]([O-])c1cc2no[n+]([O-])c2cc1N1CCCCC1", 99),
    ("CCC(C)COC(=O)c1ccc(N=Cc2ccc(C=Nc3ccc(C(=O)OCC(C)CC)cc3)cc2)cc1 (centres undefined)", 32),
    ("O=C([O][Sn]([O]C(=O)c1ccccc1)([c]1ccccc1)[c]1ccccc1)c1ccccc1", 21),
    ("Cc1ccc(N)c(S)c1", 95),
    ("CCCCOC(=O)N[C@H]1CCc2cc(OC)c(OC)c(OC)c2-c2ccc(SC)c(=O)cc21", -6),
]

---

Measured growth inhibition by item
Experiment: NCI Yeast Anticancer Drug Screen. Data for the cln2 rad14 strain (AID 165);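 also: 0% = growth equal to vehicle treated cultures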
Conditions: S. cerevisiae cln2 rad14 strain, at 5.0 µM (retest, dose inferred, filed as 0.5), active compounds read high
Experimental: Growth inhibition of yeast strains with defined genetic alterations is measured as a screen for potential anti-cancer activity. Selected strains with alterations in DNA damage repair or cell cycle control were exposed to compounds and growth inhibition was measured relative to vehicle treated controls. The strain used in this assay is cln2 rad14
The panel holds about 79,000 compounds, 15% with a hit somewhere; the sample as a whole holds those more often.

# Molecule, growth inhibition (%)
measured = [
    ("CCCCCCCCCCCCCCCCCCN(C)CC(COP(=O)([O-])OCC[N+](C)(C)C)OC (stereo not given)", 22),
    ("FC(F)(F)c1cc(NC(=S)N2c3ccccc3-n3cccc3C2c2cccnc2)cc(C(F)(F)F)c1 (stereo not given)", -10),
    ("COC1=CC(=O)C2C(C1=O)C(c1ccc(Cl)cc1)[C@@H]2C (stereo not given in full)", 30),
    ("COc1cc(CC2CC(c3ccc4c(c3)OCO4)OC2=O)cc(OC)c1OC (stereo not given)", -1),
    ("CC1OCC2OC(C)OC(C3C4=C(CC(C)(C)CC4=O)OC4=C3C(=O)CC(C)(C)C4)C2O1 (stereo not given)", 5),
]

---

assay: NCI Yeast Anticancer Drug Screen. Data for the rad14 strain (AID 159);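 also: 0% = growth of vehicle-treated control cultures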; conditions: S. cerevisiae rad14 strain growth inhibition; at 33.0 µM; active compounds read high
About 79,000 compounds went through this panel and 15% of them were active in at least one assay; those are over-represented in the sample as a whole.
Please assign a class to every record based on measured growth inhibition, with ranges lower segment: < 10%; middle segment: ≥ 10% and < 40%; upper segment: ≥ 40%

# Compound, Assigned label
data = [
    ("O=[N+]([O-])c1ccc2c(c1)C(N1CCN(CCO)CC1)Cc1ccc(F)cc1S2 (stereo not drawn)", "middle segment"),
    ("CC(=O)OCc1ccc(O)c(C=O)c1", "middle segment"),
    ("CC[C@@]1(O)C(=O)OCc2c1cc1n(c2=O)Cc2cc3c(CN(C)C)c(O)ccc3nc2-1", "lower segment"),
    ("OCC1OC(OCC(O)C(O)C(O)C(/C=N/Nc2ccccc2)=N/Nc2ccccc2)C(O)C(O)C1O (stereo not drawn)", "lower segment"),
    ("Cn1c(=O)c(-c2ccccc2)c(N=[N+]=[N-])c2ccccc21", "upper segment"),
    ("O=[N+]([O-])c1cc(CCl)ccc1CCl", "upper segment"),
    ("CSC1=NNC(SC)=NN1", "upper segment"),
    ("CCCCCCCCC/C=C/C=C/C(=O)NCC(=O)NC1C(O)C(O)C(Nc2ncnc3nc[nH]c23)OC1C(O)CO (stereo not drawn)", "lower segment"),
    ("COc1ccc(NC(=S)N/N=C(\\c2ccccc2)c2ccccn2)cc1", "upper segment"),
    ("COc1cc(C2SCC(=O)N2c2nnc(C(F)(F)F)s2)cc(OC)c1OC (stereo not drawn)", "lower segment"),
    ("Nc1ccn(C2OC(CO)C3[O][Sn]([c]4ccccc4)([c]4ccccc4)[O]C32)c(=O)n1 (stereo not drawn)", "middle segment"),
    ("COC(=O)c1cc(-c2ccc(C)cc2)[nH]c(=O)c1C#N", "lower segment"),
    ("S=C(Nc1ccc(Cl)c(Cl)c1)SCc1ccc2c(c1)OCO2", "upper segment"),
    ("CSC(=S)N/N=C(\\C)c1cccc(C)n1", "upper segment"),
    ("CNC(=O)OCc1c(COC(=O)NC)c(-c2ccc(-c3ccccc3)cc2)n(C)c1C", "middle segment"),
    ("CCN(CC)CC[n+]1ccc2c(C)c3[nH]c4ccc(O)cc4c3c(C)c2c1", "lower segment"),
    ("c1ccc2c(c1)Oc1cccc3cccc-2c13", "middle segment"),
    ("Nc1nc(Cl)c(Cl)c(Cl)n1", "upper segment"),
    ("N#CN1C2CCC1CC(=O)C2", "lower segment"),
    ("CN(C)C[C@H]1CC[C@@H](CN(C)C)C1=O", "middle segment"),
    ("CC(C)/C(Cl)=N\\OC(=O)Nc1ccc(F)cc1", "middle segment"),
]

The measured values listed here are drawn from PubChem BioAssay (NCI).
